Numbers sourced from ChEMBL document CHEMBL1201862.

# Test system: Vero
# ASSAY_COMMENT: cells
# Assay type: functional
# STATED_CONDITIONS: Chlorocebus sabaeus
Calls of active or inactive are those of the source.
ENDPOINT_LABEL: CC50

- CNC[C@H](CC1CCCCC1)NC[C@H](NCCC1CCCC1)[C@H](C)O: > 25 µM (active)
- COCCCNC1=NN=C(c2cc(C)n(Cc3ccco3)c2C)CS1: 2.27 µM (active)
- CCOC(=O)c1cnc(-n2nc(C)cc2C)nc1NC1CCCCC1: 11.5 µM (active)
- Cc1cnc(NC(=O)COc2cccc3c2OC(C)(C)C3)s1: > 25 µM (active)
- CCOC(=O)C1=C(NC(=S)NC(=O)c2ccccc2)c2ccccc2CC1C(C)C (stereo not given): > 25 µM (active)

* * *

# TEST_SYSTEM: Genome polyprotein (dengue virus type 2, UniProt P29990)
# ASSAY_COMMENT: flavivirus cap methylation enzyme inhibition – biochemical, confirmation dose response, primary screen (AID 588689)
# Assay type: functional
Activity calls are given as the source filed them.
ENDPOINT_LABEL: IC50

* O=C(O)CCCN1C(=O)/C(=C\C(Cl)=C\c2ccccc2)SC1=S | 36.2 µM (active)
* CC(/C=C1\SC(=S)N(NS(=O)(=O)c2ccc(C)cc2)C1=O)=C\c1ccccc1 | 27.1 µM (active)
* CCCCCCCCn1c(=O)c(C(=O)OCC)c(O)c2ccccc21 | 77.2 µM (active)
* Cc1ccc(N2C(=O)NC(=O)/C(=C/c3ccc(OC(=O)c4cccs4)cc3)C2=O)cc1 | 55.4 µM (active)
* O=C1NC(=O)C(=Cc2ccccc2Oc2ccc(F)cc2)C(=O)N1 | 37.5 µM (active)
* O=C1C(Cl)=C(Oc2ccccc2)C(=O)c2ccccc21 | 4.63 µM (active)
* CC(=C\c1ccccc1)/C=C1/SC(=S)N(C(C(=O)O)C(C)C)C1=O (centres undefined) | 34.1 µM (active)
* COc1cc(CN2CCCC(C(=O)c3ccc4c5c(cccc35)CC4)C2)cc(OC)c1O (centres undefined) | 97.7 µM (active)
* O=C1NN(c2ccccc2)C(=O)C1=Cc1ccccc1O | 34.6 µM (active)

* * *

# ASSAY_COMMENT: NIH-3T3 fibroblast cytotoxicity, dose response, cytotoxicity control, cell-based, fluorescence, Alamar Blue, secondary assay (AID 2327);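 also: NIH-3T3 mouse fibroblasts cultured with fluconazole at 8 µg/mL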
# Type: functional
Calls of active or inactive are those of the source.
Recorded EC50 values for a group of compounds are listed next.
ENDPOINT_LABEL: EC50

* O=C1NC(=O)/C(=C\c2ccc(Br)o2)S1 | 87.3 µM (inconclusive)
* N=C(Cc1ccc(Cl)c(Cl)c1)NOC(=O)c1cccs1 | > 160 µM (inconclusive)
* O=C(O)c1cnc(-c2ccccc2)nc1Sc1ccc(Cl)cc1Cl | 57.8 µM (active)
* CCOc1cc(/C=N/N=C(N)N)ccc1OCc1ccc(Cl)cc1 | 81.2 µM (active)
* COc1cccc2c1Oc1ncccc1N(C(=O)CCC(=O)NCc1ccccc1F)C2 | 19.4 µM (inconclusive)
* O=c1cc(CN2CCN(Cc3ccccc3)CC2)c2ccc(O)c(O)c2o1 | > 160 µM (inactive)

* * *

# TEST_SYSTEM: NAD-dependent protein deacylase sirtuin-5, mitochondrial (Homo sapiens)
# Sequence (Q9NXA8 whole entry): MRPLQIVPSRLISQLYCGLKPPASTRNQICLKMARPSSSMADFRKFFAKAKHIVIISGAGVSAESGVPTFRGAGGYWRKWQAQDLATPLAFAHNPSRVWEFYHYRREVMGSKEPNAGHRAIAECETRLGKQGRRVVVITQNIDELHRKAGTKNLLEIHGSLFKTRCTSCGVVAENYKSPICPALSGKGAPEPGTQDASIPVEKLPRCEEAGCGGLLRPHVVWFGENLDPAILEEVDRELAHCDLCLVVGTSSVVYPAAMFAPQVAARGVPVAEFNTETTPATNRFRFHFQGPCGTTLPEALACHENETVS
# ASSAY_COMMENT: sirtuin-5 deacylation blockers, concentration series – biochemical, fluorescence imaging, cherry-pick, set 5, dose response (AID 720591);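 also: desuccinylation of succinyl peptide AMC substrate read as fluorescence after trypsin release; potency of inhibitors that lower fluorescence and may act on trypsin instead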
The source made the active and inactive calls.
Outcomes: yes = active, no = inactive

• Cc1cc(Br)c(NC(=O)COC(=O)CC2CC3CCC2C3)c(Br)c1 (centres undefined) = yes
• COC(=O)[C@@]12C[C@@H](CC(=O)NCc3ccccc3)C(=O)N(Cc3ccccc3)C1=CCC(C)(C)C2 = yes
• CC1=C(c2ccccc2)SC2=NCCN21 = no
• Nc1nc(O)c2ncn([C@@H]3O[C@H](CNCc4ccc(OCCCN5CCOCC5)cc4)[C@@H](O)[C@H]3O)c2n1 = no
